Cited source: PubChem BioAssay (NCATS)

# method: Primary qHTS for inhibitors of nuclear receptor binding SET domain protein 2 (NSD2) in an isogenic RCH-ACV NSD2 p.E1099K mutant (9B) (AID 1645876); further: nearly all actives have a fitted effect of over 70% in size; further: potency means the concentration at half of the fitted maximal effect
# condition: RCH-ACV (leukaemia line) NSD2 E1099K (9B) viability, CellTiter-Glo, 72 h; series mostly up to 44.9 µM
Records with an inconclusive call do not appear. The source made the active and inactive calls. The call rests on the fitted dose curve; in most records, active means well fitted inhibition curve with a large enough effect; inconclusive means small, poorly fitted or top-dose-only effect; inactive means flat fitted curve, though single readings scatter.
value_type: Potency

# compound, measured
data = [
    ("COc1ccccc1-c1nc(SCC(=O)Nc2ccc(C)c(C)c2)n[nH]1", "inactive"),
    ("C[C@]12CCCN1CC1=NNC(=O)c3cc(F)cc4[nH]c2c1c34", "10.5 µM (active)"),
    ("Cc1ccc(Sc2ccccc2N2CCNCC2)c(C)c1", "10.5 µM (active)"),
    ("CSc1ccc(C(=O)/C=C/c2cc(C)c(OC(C)(C)C(=O)O)c(C)c2)cc1", "19.1 µM (active)"),
    ("COc1ccc(S(=O)(=O)Nc2cc(-c3csc(C#N)c3)ccc2C)cc1", "0.105 µM (active)"),
    ("C=C1C(=O)OC2/C=C(/C)CC/C=C(/C)CCC12 (stereo not given)", "11.8 µM (active)"),
    ("C/C=C/C/C=C/CCC(=O)[C@H]1O[C@H]1C(N)=O", "11.8 µM (active)"),
    ("O=C1NC(=O)/C(=C/c2ccc(-c3ccc(F)cc3)o2)S1", "inactive"),
    ("NC(=O)c1ccc2nc(-c3ccc(C4(N)CCC4)cc3)c(-c3ccccc3)n2n1", "0.296 µM (active)"),
    ("Cn1cc(C2=C(c3cn(C)c4cc([N+](=O)[O-])ccc34)C(=O)NC2=O)c2ccccc21", "0.525 µM (active)"),
    ("C/C(=C\\c1csc(C)n1)[C@@H]1C[C@@H]2O[C@]2(C)CCC[C@H](C)[C@H](O)[C@@H](C)C(=O)C(C)(C)[C@@H](O)CC(=O)N1", "0.934 µM (active)"),
    ("CC1(C)OCCn2c1nc1c(N3CCOCC3)nc(-c3cnc(N)nc3)nc12", "0.332 µM (active)"),
    ("C=C1[C@H](OC(=O)/C=C(\\C)CC)C[C@@H](C(C)C)[C@@H]2[C@H]([C@@H](C)OC(C)=O)C(=O)C[C@@H]12", "inactive"),
    ("CC[C@H](Nc1ncnc2nc[nH]c12)c1oc2ccccc2c(=O)c1-c1cccc(F)c1", "1.32 µM (active)"),
    ("C=CC(=O)N[C@H]1CN(c2nc(Nc3cn(C)nc3OC)c3ncn(C)c3n2)C[C@@H]1F", "14.8 µM (active)"),
    ("O=c1cc(-c2ccccc2)oc2ccc(O)cc12", "18.4 µM (active)"),
    ("CC(/C=C/[C@@H]1C[C@]1(C)c1ccc2c(c1)C(C)(C)CCC2(C)C)=C\\C(=O)O", "inactive"),
    ("CCN(C)S(=O)(=O)Nc1ccc(F)c(C(=O)c2c[nH]c3ncc(-c4cnc(C5CC5)nc4)cc23)c1F", "8.33 µM (active)"),
    ("N#Cc1ccc(Cn2cncc2CN2CCN(c3cccc(Cl)c3)C(=O)C2)cc1", "4.68 µM (active)"),
    ("Cc1cn(C2C[C@H](O)[C@@H](CO)O2)c(=O)[nH]c1=O (stereo not given in full)", "inactive"),
]

----------
# System: CP329
# method: qHTS profiling for inhibitors of Plasmodium falciparum proliferation (AID 504749);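 further: 0% = DMSO vehicle and full inhibition = artemisinin control; nearly all actives have a fitted effect of over 60% in size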
# condition: P. falciparum in erythrocytes, SYBR Green DNA, 72 h; series mostly up to 12.8 µM
# Experimental: NIH National Institute of Allergy and Infectious Diseases [NIAID] NIH Chemical Genomics Center [NCGC] […] Because mature erythrocytes lack DNA, only Plasmodium-derived DNA is detected. NCGC Assay Protocol Summary: The SYBR Green viability assay was adapted from a method described previously (Plouffe et al., 2008). […] The following morning, fluorescence intensity at 485(14) nm excitation and 535(25) nm emission wavelengths was measured on an EnVision (Perkin Elmer) plate reader. […]
Results filed as inconclusive are left out. The source made the active and inactive calls. Calls come from the whole dose curve; as a rule, active = well fitted inhibition curve with a large enough effect; inconclusive = small, poorly fitted or top-dose-only effect; inactive = flat fitted curve, though single readings scatter.
value_type: outcome

# compound, value_type, measured
data = [
    ("CCCCC[C@H](O)/C=C\\[C@H]1[C@H](C/C=C\\CCCC(=O)O)[C@@H](O)C[C@H]1O (tested in a mixture with another compound)", "outcome", "inactive"),
    ("Cc1ncc([N+](=O)[O-])n1C[C@H](O)CCl", "outcome", "inactive"),
    ("CNC[C@H](O)c1ccc(OC(=O)C(C)(C)C)c(OC(=O)C(C)(C)C)c1", "outcome", "inactive"),
    ("COC(=O)[C@@H]1[C@@H]2C[C@H]3c4[nH]c5cc(OC)ccc5c4CCN3C[C@@H]2C[C@H](OC(=O)/C=C\\c2cc(OC)c(OC)c(OC)c2)[C@H]1OC", "outcome", "inactive"),
    ("Nc1nc2ncc(CNc3ccc(C(=O)NC(CCC(=O)O)C(=O)O)cc3)nc2c(=O)[nH]1 (stereo not given)", "outcome", "inactive"),
]

----------
# system: Cytochrome P450 2C19 (Homo sapiens)
# method: qHTS Assay for Inhibitors and Substrates of Cytochrome P450 2C19 (AID 899); further: nearly all actives have a fitted effect of over 60% in size
# condition: recombinant CYP2C19, luciferin-H EGE luminescence; series mostly up to 57.1 µM
Inconclusive results are not listed. Active and inactive are the calls of the source. Calls follow the shape of the dose curve; as a rule, active = well fitted inhibition curve with a large enough effect; inconclusive = small, poorly fitted or top-dose-only effect; inactive = no such curve, though single readings can be large or run the other way.
Labels: 1.0 (active), 0.0 (inactive)

# smiles_code, class
data = [
    ("CN(C/C=C\\c1ccccc1)Cc1cccc2ccccc12", 1.0),
    ("CC/C=C\\C[C@H]1C(=O)CC[C@@H]1CC(=O)O", 0.0),
    ("Cc1onc(-c2c(Cl)cccc2Cl)c1C(=O)N[C@H]1C(=O)N2[C@H]1SC(C)(C)[C@H]2C(=O)O", 0.0),
    ("CC(=O)CC(=O)[C@@]1(O)CC[C@@H]2[C@@H]3C=C(C)C4=CC(=O)CC[C@@H]4[C@H]3CC[C@]21C", 1.0),
    ("O=c1cc(-c2cccc(O)c2)oc2cc(O)ccc12", 0.0),
    ("C[N+]1(C)C[C@@H](O)C[C@@H]1C(=O)[O-]", 0.0),
    ("COc1cccc(-c2nc(NCCc3c[nH]c4ccc(OC)cc34)c3ccccc3n2)c1", 1.0),
    ("C#C[C@]1(O)CC[C@@H]2[C@H]3CCC4=CCCC[C@@H]4[C@@H]3CC[C@@]21C", 1.0),
    ("FC(F)(F)c1ccccc1-c1ccc2ncnc(NC3CCNCC3)c2c1", 1.0),
    ("C[C@H]1CC[C@@H]2[C@@H](C)[C@H]3[C@H](C[C@H]4[C@@H]5CC=C6C[C@@H](O[C@]7(O[C@H]8O[C@@H](C)[C@@H](O)[C@@H](O)[C@@H]8O)C[C@@H](O[C@@H]8O[C@H](CO)[C@@H](O)[C@H](O)[C@@H]8O)[C@@H](O)[C@H](CO)O7)CC[C@]6(C)[C@H]5CC[C@@]34C)N2C1", 0.0),
    ("NC(=O)c1ccc[n+]([C@@H]2O[C@H](COP(=O)([O-])OP(=O)(O)OC[C@H]3O[C@@H](n4cnc5c(N)ncnc54)[C@@H](O)[C@@H]3O)[C@@H](O)[C@@H]2O)c1", 0.0),
    ("CC=C(/C(=C/C)c1ccc(O)cc1)c1ccc(O)cc1", 1.0),
    ("CN1[C@H](CC(=O)c2ccccc2)CCC[C@H]1C[C@@H](O)c1ccccc1", 0.0),
    ("C/C(=C\\CNc1ncnc2nc[nH]c12)CO", 0.0),
]

----------
# system: Rap guanine nucleotide exchange factor 3 (Homo sapiens)
# method: Counterscreen qHTS for antagonist of cAMP-regulated guanine nucleotide exchange factor 3 (EPAC1) (AID 1645888);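 further: fluorescence loss as bound BODIPY-GDP is released from Rap1B; % of control where 0% means no effect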
# condition: Rap1B-BODIPY-GDP nucleotide exchange, fluorescence; series mostly up to 154 µM
Results filed as inconclusive are left out. Active and inactive are the calls of the source. The call rests on the fitted dose curve; in most records, active means well fitted inhibition curve with a large enough effect; inconclusive means small, poorly fitted or top-dose-only effect; inactive means no such curve, though single readings can be large or run the other way.

# compound, activity change, negative = inhibition
data = [
    ("COc1cc(/C=C2\\SC(=S)N(NS(=O)(=O)c3ccccc3)C2=O)ccc1O", "inactive"),
    ("COc1ccc(NS(=O)(=O)c2ccc3[nH]c4c(c3c2)CCCCCC4)cc1", "inactive"),
    ("COC(=O)CSc1nc2sc3c(c2c(=O)n1-c1ccc(OC)cc1)CCN(C)C3", "inactive"),
    ("CCc1nnc(NS(=O)(=O)c2ccc(Nc3ccc([N+](=O)[O-])c4nonc34)cc2)s1", "inactive"),
    ("COc1ccc(-c2cc(C(F)(F)F)nc(SCC(=O)NCCc3ccccc3)n2)cc1OC", "inactive"),
    ("CCn1c2ccccc2c2nnc(SCC(=O)N(C)C3CCS(=O)(=O)C3)nc21 (centres undefined)", "5.48% [at 30.8 µM] (inactive)"),
    ("Oc1ccc(Br)cc1C=Nc1cccn2cc(-c3ccccc3)nc12", "inactive"),
    ("OC(c1ccc(Cl)c(Cl)c1)c1ncc(-c2ccc(Cl)cc2)[nH]1 (centres undefined)", "-2.17% [at 30.8 µM] (inactive)"),
    ("CC(C)(C)c1ccc(C(CC(=O)O)NC(=O)CSc2ccccc2)cc1 (centres undefined)", "inactive"),
    ("CCCC(=O)Nc1nnc(SCc2cc(=O)c3ccc(C)cc3[nH]2)s1", "inactive"),
    ("CC(C)[C@H](NC(=O)NCCc1ccc(F)cc1)C(=O)O", "-8.58% [at 30.8 µM] (inactive)"),
    ("CC(C)c1ccc(NS(=O)(=O)c2cn(C)c(=O)n(C)c2=O)cc1", "inactive"),
    ("COc1cccc(/C=C2\\SC(=S)N(C(Cc3ccccc3)C(=O)O)C2=O)c1 (centres undefined)", "inactive"),
    ("COc1ccc(C(=O)NCc2ccc3c(c2)CCN3C(=O)c2ccc(C)cc2)cc1", "inactive"),
    ("CC(C)CC1C(=O)N(Cc2cn(CCC3OCCO3)nn2)CCS(=O)(=O)N1Cc1ccc(-c2ccc(F)cc2)cc1 (centres undefined)", "-16% [at 30.8 µM] (inactive)"),
    ("COc1ccc(CN2C(=O)CN(S(C)(=O)=O)CC2(C)C(=O)Nc2c(C)cccc2C)cc1OC (centres undefined)", "-5.99% [at 30.8 µM] (inactive)"),
    ("O/C=c1\\ccc2cccc3nc(C(F)(F)F)nc1c23", "inactive"),
    ("CC(=O)Nc1ccc(CNc2nc3cc(-c4ccsc4)sc3c(=O)n2C)cc1", "16% [at 30.8 µM] (inactive)"),
    ("CC(C)(C)NC(=O)NC(=O)CN1CCc2ccccc21", "5.54% [at 30.8 µM] (inactive)"),
    ("CCOc1ccccc1NC(=O)COC(=O)c1ccc(S(=O)(=O)N2CCCC2)cc1", "inactive"),
    ("CC(=O)c1sc(NC(=O)c2c(F)cccc2F)nc1C", "inactive"),
    ("CC1(C)CC(=O)C2=C(C1)c1c(ccc3ccccc13)NC2c1cc([N+](=O)[O-])cc([N+](=O)[O-])c1O (centres undefined)", "inactive"),
    ("Cc1ccc(S(=O)(=O)CC(=O)N(CCCN(C)C)c2nc3ccc(C)cc3s2)cc1", "inactive"),
    ("NC(=O)c1cc2ccc(O)cc2oc1=NCc1ccccc1", "inactive"),
    ("O=C(NCCN1CCCC1)C(c1ccccc1)c1ccccc1", "inactive"),
    ("CN(C)c1nc(Oc2ccc(=O)[nH]n2)nc(N2CCOCC2)n1", "inactive"),
    ("CCCOc1ccccc1Cn1c(=O)oc2ccccc21", "inactive"),
    ("O=[N+]([O-])c1ccc(Cc2ccccn2)c([N+](=O)[O-])c1", "inactive"),
    ("O=C1c2ccccc2C(=O)N1c1nc(-c2cccs2)cs1", "inactive"),
    ("COc1ccc(CNc2cccnc2)c(OC)c1OC", "-16% [at 30.8 µM] (inactive)"),
    ("COc1ccc(OC)c(/C=c2\\sc3nc(-c4cccs4)nn3c2=O)c1", "inactive"),
    ("C/C(=N\\NC(=O)c1cc2ccccc2cc1O)c1cc2ccccc2o1", "inactive"),
    ("CCn1c(CSc2nc3ccccc3s2)nnc1SCC(=O)c1ccc(O)c(O)c1", "inactive"),
    ("COc1ccc(N(Cc2cccs2)C(=O)c2ccco2)cc1", "inactive"),
    ("O=c1cc(CSc2ccccc2)nc(-c2ccncc2)[nH]1", "inactive"),
    ("Cc1cc(C)c(C(=O)c2cccs2)c(C)c1", "inactive"),
    ("Cn1c(Cc2cccs2)nnc1SCc1nc2ccccc2[nH]1", "-1.2% [at 30.8 µM] (inactive)"),
    ("COc1ccc(NC(=O)COc2ccccc2C#N)c(S(=O)(=O)N2CCCCC2)c1", "inactive"),
    ("CCOC(=O)C1CCN(C(=O)c2cccc(S(=O)(=O)N(CC)c3ccccc3)c2)CC1", "inactive"),
    ("Nc1nc(NCC(=O)O)nc(NCc2ccccc2)c1[N+](=O)[O-]", "inactive"),
    ("CCOC(=O)/C(C#N)=C/c1ccc(N2CCCCC2)cc1", "-1.56% [at 30.8 µM] (inactive)"),
    ("COc1cccc(-c2ccc(C#N)c(OC(=O)c3ccc(Cl)cc3)n2)c1", "-4.63% [at 30.8 µM] (inactive)"),
    ("CCOC(=O)C1CCCN(C(=O)C(C)(C)Oc2ccc(Cl)cc2)C1 (centres undefined)", "inactive"),
    ("O=C(Nc1cccs1)Nc1ccccc1Cl", "6.73% [at 30.8 µM] (inactive)"),
]
